# TARGET_OR_TEST_SYSTEM: human CatL (Homo sapiens (Human), UniProt P07711)
# Sequence (P07711 whole entry, looked up): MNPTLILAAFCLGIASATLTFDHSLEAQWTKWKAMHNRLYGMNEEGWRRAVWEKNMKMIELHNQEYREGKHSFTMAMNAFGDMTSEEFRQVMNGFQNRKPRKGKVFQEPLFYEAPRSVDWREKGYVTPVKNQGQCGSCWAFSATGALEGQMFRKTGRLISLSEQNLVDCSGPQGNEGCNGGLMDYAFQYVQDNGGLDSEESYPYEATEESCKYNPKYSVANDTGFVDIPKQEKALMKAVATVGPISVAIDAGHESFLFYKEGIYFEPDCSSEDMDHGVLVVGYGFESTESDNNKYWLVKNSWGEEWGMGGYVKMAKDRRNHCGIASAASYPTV
# METHOD_SUMMARY: Human Cathepsin L (CatL) enzymatic assay
# Assay type: biochemical
# STATED_CONDITIONS: CatL 0.05 nM, substrate 500 nM, pH 5.5; read-out: Enzymatic inhibition IC50
PROPERTY_MEASURED: pIC50
Please treat pIC50 as minus the base-10 logarithm of the molar concentration.

Field: example entries. Status: answers known.
CN1CCN(c2ccc3nc(C[C@H](NC(=O)c4cccc(Cl)c4)C(=O)NC4(C#N)CC4)oc3c2)CC1 :: 8.01
N#CC1(NC(=O)[C@H](Cc2nc3ccc(F)cc3o2)NC(=O)c2cccc(Cl)c2)CC1 :: 7.46
N#CC1(NC(=O)[C@H](Cc2nc3ccccc3o2)NC(=O)c2cccc(Cl)c2)CC1 :: 7.85

// lookup pIC50 for `Cc1ccc(-c2ccc3nc(C[C@H](NC(=O)c4cc(C5(C)CC5)nn4C4CC4)C(=O)NC4(C#N)CC4)oc3c2)cn1`
8.35
